procedure_details: estimated solubility by adding test solvent in aliquots to weighed solid, visual inspection
Assay type: physicochemical
experimental_setup: aqueous with cosolvent or surfactant or cyclodextrin, thermodynamic from solid; 2-propanol/H2O (80/20), aw 0.9; solubility without temperature; read-out: Solubility
measured_endpoint: solubility

### Prompt Check the records and state solubility for CN1CCN([C@@H]2CCCN(c3cnc(C(N)=O)c(Nc4ccc(C5CCN(CC6CCN(c7ccc(C(=O)N[C@H]8CCC(=O)NC8=O)nc7)CC6)CC5)cc4)n3)C2)C1=O.O=C(O)/C=C/C(=O)O [Fumarate Salt Form A]
### Response < 1000 µg/mL
